protein stability index for assorted variants
B1: MATN2 (parent)
chain: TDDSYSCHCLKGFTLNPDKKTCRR

- Variants of: B1
- PROCEDURE_TEXT: protein stability index of a GFP-peptide fusion (GPS, HEK-293T) (PSI 1-6); higher = more stable;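 also: lentivirally expressed fusions sorted by FACS into six bins by GFP to DsRed ratio, PSI derived from sequencing read proportions per bin multiplied by bin number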
- PROTOCOL_CONDITIONS: c terminus: a fixed tail appended
Response field accepts a number only; no unit should be typed.

ENTRY_SEQUENCE | PROPERTY_NAME | TEST_RESULT
TDDSYLCHCLKGFTLNPDKKTCRR [S6L] | protein stability index | 2.15
TDDSYWCHCLKGFTLNPDKKTCRR [S6W] | protein stability index | 2.32
TDDSYSCHCLKGFTLNPDMKTCRR [K19M] | protein stability index | 2.17
TDDSYTCHCLKGFTLNPDKKTCRR [S6T] | protein stability index | 2.19
TDDSYSCHCLKGWTLNPDKKTCRR [F13W] | protein stability index | 2.44
TDDSYSCNCLKGFTLNPDKKTCRR [H8N] | protein stability index | 1.91
TDESYSCHCLKGFTLNPDKKTCRR [D3E] | protein stability index | 1.73
TDDSYKCHCLKGFTLNPDKKTCRR [S6K] | protein stability index | 3.07
TDDSTSCHCLKGFTLNPDKKTCRR [Y5T] | protein stability index | 2.58
TDDSYSCHCLWGFTLNPDKKTCRR [K11W] | protein stability index | 2.2

So, TDDSYSCHCLKGFVLNPDKKTCRR [T14V] ? Its protein stability index was 3.45

So, TDDSYSCHCLKGFTLNFDKKTCRR [P17F] ? Its protein stability index was 2.3

So, TDDSYSCHCLKGFTLNPDKKDCRR [T21D] ? Its protein stability index was 2.6

So, TDDSYSCHCLKFFTLNPDKKTCRR [G12F] ? Its protein stability index was 1.98

So, WDDSYSCHCLKGFTLNPDKKTCRR [T1W] ? Its protein stability index was 2.35

So, TDDSYSCHCLKGFTLNPLKKTCRR [D18L] ? Its protein stability index was 2.23
